// provenance: PubChem BioAssay (NCI)

test system: RXF 393 renal; experiment: NCI-60 one-dose screen, 48 h; conditions: 10 µM unless noted
The panel holds about 83,000 compounds, 20% with a hit somewhere; the sample as a whole holds those more often. Activity calls are given as the source filed them. How the source made its calls: active means growth percent below 10; inactive means the rest.
Your answer must be one of the following: yes (active), no (inactive)

// known answers, use as guide
COc1cc2c(c(OC)c1OC)C(=O)CC(c1cccc(NC(=O)c3cc(NC(=O)[C@H](C)N)ccc3Cl)c1)O2 (some centres undefined)
no
COc1ccc(-c2nnc3ccc(N/N=C/c4ccc(O)cc4)nn23)cc1
no
Clc1cccc(N/N=C/c2c[nH]c3ccc(Br)cc23)n1
no
COc1cc2c(c(OC)c1OC)C(=O)CC(c1cccc(NC(=O)c3cccc(NC(=O)[C@H](C)NC(=O)OC(C)(C)C)c3)c1)O2 (some centres undefined)
no
COc1ccc(-c2ccnc(SCc3cc4cc(OC)ccc4[nH]c3=O)n2)cc1
yes
COc1cccc(/C=C/c2nc3ccccc3c(=O)n2CC(=O)Nc2ccc(Cl)cc2)c1
no
Cc1ccc(-c2nc(Nc3ccccc3S(N)(=O)=O)c3ccccc3n2)cc1
no
Cc1ccc(C(=O)CSc2nc3ccc(C)cc3c(=O)n2-c2ccc(F)cc2)cc1
no

Now for a further compound.
Please share the test call associated with Cc1ccc2c(N)c(C(=O)Nc3ccc(OC(F)(F)F)cc3)sc2n1 . no

* * *

tested on: IGROV1 ovarian; experiment: NCI-60 one-dose screen, 48 h; conditions: 10 µM unless noted
Compounds without any hit were thinned out: in the full panel of roughly 83,000, 20% have a hit. Calls of active or inactive are those of the source. How the source made its calls: active means growth percent below 10; inactive means the rest.
Tick one outcome: active, inactive

CC1=C(C(=O)c2ccccc2)C(c2cccc(Cl)c2Cl)n2c(nc3ccccc32)N1 (stereo not drawn)
inactive
Cc1ccc2c(c1)nc(-c1ccccc1)n2CC(=O)N=Nc1c(O)[nH]c2ccc(Br)cc12
active

// return assay outcome for CC1(C)CC[C@]2(C(=O)Nc3ccc(Br)cc3)CC[C@]3(C)C(=CCC4[C@@]5(C)C[C@@H](O)[C@H](O)[C@@](C)(CO)C5CC[C@]43C)C2C1 (stereo partly drawn) inactive

* * *

system: NCI-H460 lung; test: NCI-60 one-dose screen, 48 h; conditions: 10 µM unless noted
This is part of a sample that, as a whole, favours compounds with a hit. Of some 83,000 tested, about 20% had one in any assay. Activity calls are given as the source filed them. How the source made its calls: active means growth percent below 10; inactive means the rest.
# output must be one of active, inactive

CC1=C(C(=O)c2ccccc2)C(c2ccc(-n3cncn3)cc2)n2c(nc3ccccc32)N1 (stereo not given)
inactive
COc1cc(OC)cc(-c2cc3ccc(N(C)C)cc3c(=O)[nH]2)c1
active
Cc1ccc(C(=O)NN2C(=O)/C(=C/C=C/c3ccc([N+](=O)[O-])o3)SC2=S)cc1
active
COc1ccc(/C=C/c2n(Cc3ccc4ccccc4c3)c3ccccc3[n+]2Cc2ccc3ccccc3c2)cc1
active

Hi team, can someone confirm the assay call for CCOC(=O)/C=C/c1cccc2c1C(=O)NC(C)(c1cc3cc(Cl)ccc3oc1=O)N2 (stereo not given) ? inactive

* * *

Tested on: DU-145 prostate
Assay: NCI-60 one-dose screen, 48 h (100 = growth as untreated, 0 = no growth, -100 = all killed)
Settings: 10 µM unless noted
Experimental: Cells are grown in 96 well plates and exposed to the test compound for 48 hours. Compounds are tested at a single concentration, which is 10^-5 M for most compounds. The reported endpoint is percent growth (GI% or GIPRCNT), where numbers from 0 - 100% represent growth inhibition, and numbers from -100% - 0 represent cell death. For example, a value of 40 represents 60% growth inhibition. A value of 0 means no net growth occurred over the course of the experiment. […]
Compounds without any hit were thinned out: in the full panel of roughly 83,000, 20% have a hit.
Known growth of a selection of compounds
Reply with just the number (in %).

Known growth results, listed for orientation:
Cc1c(C(=O)NNC(=O)Nc2ccc(Cl)cc2)nnn1-c1ccc(Br)cc1
99.5
CC1=C(C(=O)c2ccccc2)C(c2cccc(Cl)c2Cl)n2c(nc3ccccc32)N1 (centres undefined)
58.1

Kindly note: DU-145 prostate, Cc1nc(Nc2ncc(C(=O)Nc3c(C)cccc3Cl)s2)cc(N2CCN(CCCNC(=O)COc3ccc(C4CCC(=O)NC4=O)cc3)CC2)n1 (centres undefined) , growth value reported: 41.9

Form: item CC12CC[C@@H]3[C@]4(C)COC(c5c(F)cccc5F)O[C@@H]4CC[C@@]3(C)[C@@H]1CC(C1=CCOC1=O)O2 (some centres undefined) ; test system DU-145 prostate; growth: 76.6

The reported growth value, DU-145 prostate, for COc1ccc2[nH]c(=O)c(CSc3nccc(-c4ccc(OC)c(OC)c4)n3)cc2c1 reads 37.4

Param item: COc1cc(-c2ccc(/C=N/NC(=O)c3[nH]c4ccc(Br)cc4c3-c3ccccc3)o2)cc(OC)c1OC ; param system: DU-145 prostate; output growth: 81.1

DU-145 prostate data for COc1ccc([C@H](C)Nc2nc(Cl)nc3ccccc23)cc1 ; its growth: 74.2

# lookup: CC(=O)c1cc(C(=O)c2ccccc2)n2c1ccc1ccccc12 on DU-145 prostate, growth = 128

Considering O=c1cc(-c2ccccc2)oc2cc(OCCCC[P+](c3ccccc3)(c3ccccc3)c3ccccc3)cc(O)c12 , its growth with DU-145 prostate was recorded as -94.8

* * *

system: SK-MEL-5 melanoma; assay: NCI-60 one-dose screen, 48 h (100 = growth as untreated, 0 = no growth, -100 = all killed); details: 10 µM unless noted
About 83,000 compounds went through this panel and 20% of them were active in at least one assay; those are over-represented in the sample as a whole.
result.type: growth (%)
Please give a number only; it is taken to be in %.

Recorded results for 3 compounds are shown here.
COc1cc(CNC(=O)/C=C/c2ccc3c(c2)OCO3)ccc1OCc1cn(-c2ccc([N+](=O)[O-])cc2)nn1
89.3
CCCS(=O)(=O)N1CCCC(C(=O)Nc2nc3ccc(NC(=O)c4ccc(F)c(OC)c4F)cc3s2)C1 (centres undefined)
-41
COc1ccc2oc3c4[nH]c5ccccc5c4c4c(c3c2c1)C(=O)N(C(=O)OC(C)(C)C)C4=O
-99.3

Just so you know, measured growth for N#Cc1c(-c2ccc(Br)cc2)nc2n[nH]c(-c3ccc(Br)cc3)c2c1-c1ccc(F)cc1 came out at 95.1

* * *

tested on: ACHN renal; test: NCI-60 one-dose screen, 48 h (100 = growth as untreated, 0 = no growth, -100 = all killed); settings: 10 µM unless noted
About 83,000 compounds went through this panel and 20% of them were active in at least one assay; those are over-represented in the sample as a whole.
result.type: growth (%)
Write the number in % without appending the unit.

Below, 5 compounds whose answers are already recorded.
COc1ccc(/C=C/c2nc3ccccc3n3c(-c4ccc(Cl)cc4)nnc23)cc1
93.5
CCCCSc1nc(Nc2ccc(S(N)(=O)=O)cc2)c(C#N)c(-c2ccc(Cl)cc2)n1
-66.9
O=C(NNc1nc2cc(C(F)(F)F)ccc2n2cccc12)c1cnccn1
-97.5
O=C1c2c(c3c4cc(F)ccc4oc3c3[nH]c4ccc(Br)cc4c23)C(=O)N1O
-33.8
COc1ccc(-c2nc(SC(C)C)nc(NCCc3c[nH]c4ccccc34)c2C#N)cc1
48.9

Now examine the next entry.
Kindly note the recorded growth for Cc1ccc(C(=O)CSc2nc3ccc(C)cc3c(=O)n2-c2ccc(F)cc2)cc1 , which is 19.3

* * *

system: OVCAR-5 ovarian; experiment: NCI-60 one-dose screen, 48 h (100 = growth as untreated, 0 = no growth, -100 = all killed); conditions: 10 µM unless noted
Compounds without any hit were thinned out: in the full panel of roughly 83,000, 20% have a hit. Active and inactive are the calls of the source. How the source made its calls: active means growth percent below 10; inactive means the rest.
result.type: growth

Consider the worked cases shown below.
CN(C)c1nc(NCCNS(=O)(=O)c2ccc(C(=O)/C=C/c3ccc(Cl)cc3)cc2)nc(Nc2ccc(F)cc2)n1
-67% (active)
O=C(NNc1nc2cc(F)ccc2n2c(C(=O)N3CCN(C4CC4)CC3)ccc12)c1ncccn1
38.4% (inactive)

Record summary for COc1c(F)ccc(C(=O)Nc2ccc3nc(NC(=O)C4CCCN(S(=O)(=O)c5cccc(C(F)(F)F)c5)C4)sc3c2)c1F (configuration not stated) : reported growth = 101% (inactive)

Consider COc1ccc(NC(=O)[C@H](C)N)cc1C(=O)Nc1cccc(C2CC(=O)c3c(cc(OC)c(OC)c3OC)O2)c1 (some centres not stated) . Its measured growth is 104% (inactive)

So for CC(C)CSc1nc(NCCc2c[nH]c3ccccc23)c(C#N)c(-c2ccccc2)n1 , the logged growth turned out to be 85.6% (inactive)

Field growth (entry CC12CC[C@@H]3[C@]4(C)COC(c5cn[nH]c5-c5cccc(Cl)c5)O[C@@H]4CC[C@@]3(C)[C@@H]1CC(C1=CCOC1=O)O2 (some centres not stated) ) reads 61.7% (inactive)

Documented growth of Cc1ccc(C(=O)CSc2nc3ccc(F)cc3c(=O)n2-c2ccc(Cl)cc2)cc1 : 76.2% (inactive)

Entry CC1[C@H]2[C@H](C[C@H]3[C@@H]4CC=C5c6sc(Nc7ccccc7F)nc6CC[C@]5(C)[C@H]4CC[C@@]32C)O[C@]12CC[C@@H](C)CO2 (some centres not stated) , growth reported as -67.1% (active)

C/C(=N\N=C1/C(=O)Nc2ccc(Cl)cc21)c1ccc2c(c1)Nc1ccccc1S2 has a reported growth of 15.8% (inactive)

Query C#CCOc1cc(N(CC)CC)ccc1C(C(=O)NC(C)(C)C)N(C(=O)C1CCc2cc(F)ccc2O1)c1ccccc1Br (configuration not stated) yields growth of 69% (inactive)

growth measured on CC(C)c1sc(NC(=O)c2cc(NC(=O)c3cc(NC(=O)c4nccn4C)cn3C)cn2C)nc1C(=O)NCCCN(C)C = 105% (inactive)

For Cn1cc(NC(=O)c2cc(NC(=O)c3ccc(C#Cc4ccccc4)cc3)cn2C)cc1C(=O)NCCCN1CCOCC1 the molecule record lists growth as 83.2% (inactive)
